# credit: PubChem BioAssay (NCATS)

TGT: Voltage-gated inwardly rectifying potassium channel KCNH2 (Homo sapiens) (UniProt Q12809)
Sequence (Q12809 whole entry, looked up): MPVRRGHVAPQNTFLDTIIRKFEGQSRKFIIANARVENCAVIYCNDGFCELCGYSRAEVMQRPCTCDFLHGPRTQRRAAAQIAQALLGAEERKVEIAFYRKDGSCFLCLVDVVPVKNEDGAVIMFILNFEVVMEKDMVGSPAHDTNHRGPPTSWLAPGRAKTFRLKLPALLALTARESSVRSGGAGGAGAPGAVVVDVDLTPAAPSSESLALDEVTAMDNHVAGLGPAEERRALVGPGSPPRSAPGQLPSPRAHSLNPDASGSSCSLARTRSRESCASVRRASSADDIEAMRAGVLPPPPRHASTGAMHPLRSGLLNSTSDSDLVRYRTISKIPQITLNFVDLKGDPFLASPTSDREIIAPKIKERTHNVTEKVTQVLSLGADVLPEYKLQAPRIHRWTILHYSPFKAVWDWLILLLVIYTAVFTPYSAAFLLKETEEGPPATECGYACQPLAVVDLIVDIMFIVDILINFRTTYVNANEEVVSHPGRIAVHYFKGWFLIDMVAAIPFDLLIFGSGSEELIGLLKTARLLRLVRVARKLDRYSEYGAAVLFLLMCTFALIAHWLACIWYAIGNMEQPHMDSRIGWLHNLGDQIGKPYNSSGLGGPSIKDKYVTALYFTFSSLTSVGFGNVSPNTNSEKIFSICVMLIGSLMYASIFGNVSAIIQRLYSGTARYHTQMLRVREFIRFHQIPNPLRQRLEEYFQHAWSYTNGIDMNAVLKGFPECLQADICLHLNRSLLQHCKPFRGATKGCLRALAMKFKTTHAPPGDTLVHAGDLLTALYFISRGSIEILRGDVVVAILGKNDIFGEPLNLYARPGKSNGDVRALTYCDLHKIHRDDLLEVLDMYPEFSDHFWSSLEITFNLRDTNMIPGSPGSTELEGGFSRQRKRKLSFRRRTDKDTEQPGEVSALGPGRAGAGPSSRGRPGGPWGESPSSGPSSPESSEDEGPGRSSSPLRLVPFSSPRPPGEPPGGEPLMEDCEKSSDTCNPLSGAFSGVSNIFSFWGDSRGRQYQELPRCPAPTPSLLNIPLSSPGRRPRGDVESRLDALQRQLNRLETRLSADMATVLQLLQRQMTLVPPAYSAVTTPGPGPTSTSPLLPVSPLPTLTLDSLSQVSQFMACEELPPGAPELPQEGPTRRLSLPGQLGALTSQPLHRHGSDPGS
TEST DESCRIPTION: qHTS Assay for Small Molecule Inhibitors of the Human hERG Channel Activity (AID 588834);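 also: U2OS cells transduced with hERG by BacMam; top concentration of the series differs between compounds; lower thallium flux fluorescence means stronger hERG block; nearly all actives have a fitted effect of over 50% in size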
STUDY CONDITIONS: U2OS BacMam hERG, FluxOR thallium flux fluorescence; series mostly up to 46.1 µM
Procedure: NIH Chemical Genomics Center [NCGC] National Institutes of Environmental Health Sciences [NIEHS] National Toxicology Program [NTP] We have developed a 1536-well cell-based assay for quantitative high throughput screening (qHTS) to determine in vitro hERG channel blockage as a measure of cardio toxicity with small molecules. […] 13. Read fluorescence Intensity on FDSS for 10 Sec with 1 sec interval […] 15. Read fluorescence Intensity on FDSS for 2 min with 1 sec interval […]
Results filed as inconclusive are left out. Active and inactive are the calls of the source. Calls follow the shape of the dose curve; as a rule, active = well fitted inhibition curve with a large enough effect; inconclusive = small, poorly fitted or top-dose-only effect; inactive = flat fitted curve, though single readings scatter.
PROPERTY LABEL: outcome

- CCCCCCCCCCCCCCCC(=O)OC[C@@H](O)[C@H]1OC[C@H](O)[C@H]1O: inactive
- CO/N=C(\C(=O)N[C@@H]1C(=O)N2C(C(=O)[O-])=C(C[n+]3cccc4c3CCC4)CS[C@H]12)c1csc(N)n1: inactive
- O=P(O)(O)OC[C@H]1O[C@](O)(COP(=O)(O)O)[C@@H](O)[C@@H]1O: inactive

* * *

System: CP237
TEST DESCRIPTION: qHTS profiling for inhibitors of Plasmodium falciparum proliferation (AID 504749); also: nearly all actives have a fitted effect of over 60% in size
STUDY CONDITIONS: P. falciparum in erythrocytes, SYBR Green DNA, 72 h; series mostly up to 28.7 µM
Procedure: NIH National Institute of Allergy and Infectious Diseases [NIAID] NIH Chemical Genomics Center [NCGC] […] Because mature erythrocytes lack DNA, only Plasmodium-derived DNA is detected. NCGC Assay Protocol Summary: The SYBR Green viability assay was adapted from a method described previously (Plouffe et al., 2008). […] The following morning, fluorescence intensity at 485(14) nm excitation and 535(25) nm emission wavelengths was measured on an EnVision (Perkin Elmer) plate reader. […]
Results filed as inconclusive are left out. The source made the active and inactive calls. Calls follow the shape of the dose curve; as a rule, active = well fitted inhibition curve with a large enough effect; inconclusive = small, poorly fitted or top-dose-only effect; inactive = flat fitted curve, though single readings scatter.
Your answer must be one of the following: active, inactive

See these solved cases before continuing.
- COc1cc(NCCCC(C)N)c2ncccc2c1 (stereo not drawn): active
- Cc1ccc(C(C)(C)c2ccc(C)cc2)cc1: inactive
- CC(C)C1=CC2=CC[C@@H]3[C@](C)(CCC[C@@]3(C)C(=O)O)[C@H]2CC1: inactive
- C=CCN1CCCC1CNC(=O)c1cc(S(N)(=O)=O)cc(OC)c1OC (stereo not drawn): inactive

## Input Lab log entry: NC(=O)CC[C@@H]1NC(=O)[C@H](Cc2ccccc2)NC(=O)[C@H](Cc2ccc(O)cc2)NC(=O)[C@@H](N)CSSC[C@@H](C(=O)N2CCC[C@H]2C(=O)N[C@@H](CCCN=C(N)N)C(=O)NCC(N)=O)NC(=O)[C@H](CC(N)=O)NC1=O — outcome as called in the assay?
## Output inactive

## Input Lab log entry: C[C@H]1O[C@@H](O[C@H]2[C@@H](O)C[C@H](O[C@H]3[C@@H](O)C[C@H](O[C@H]4CC[C@@]5(C)[C@H](CC[C@@H]6[C@@H]5C[C@@H](O)[C@]5(C)[C@@H](C7=CC(=O)OC7)CC[C@]65O)C4)O[C@@H]3C)O[C@@H]2C)C[C@H](O)[C@@H]1O — outcome as called in the assay?
## Output inactive

## Input Lab log entry: CCOC(=S)SSC(=S)OCC — outcome as called in the assay?
## Output inactive

## Input Lab log entry: O=C(O)c1cc(N=Nc2ccc(O)c(C(=O)O)c2)ccc1O — outcome as called in the assay?
## Output inactive
